# Experiment notes: Biochemical counterscreen for C difficile toxins, absence of UDPG, inhibitor dose response (AID 720650)
# Protocol conditions: series mostly up to 19.5 µM
Calls of active or inactive are those of the source. How the calls were made is not given here.
Possible outcomes: y = active, n = inactive

{"columns": ["Compound", "Class assignment"],
 "data": [
  ["Cc1ccc(C(=O)Nc2ncc([N+](=O)[O-])s2)cc1", "n"],
  ["C/C(=N\\OCC(=O)Nc1nc2ccccc2s1)c1ccccc1", "n"],
  ["O=C(C[C@@H]1CC[C@@H]2[C@H](COC[C@H](O)CN2C(=O)c2ccccn2)O1)NC1CCC1", "n"],
  ["Cc1ccc2sc(NNC(=O)C3COc4ccccc4O3)nc2c1C (configuration not stated)", "y"],
  ["Cc1ccc(S(=O)(=O)N2CCC(C(=O)OCC(=O)NCCc3ccccc3)CC2)cc1C", "n"],
  ["Cc1cc(-c2ccc(NS(=O)(=O)c3ccccc3)c(C)c2)ccc1NS(=O)(=O)c1ccccc1", "n"],
  ["Cc1nc(SCC(=O)N2CCNC2=O)c(C#N)c(C)c1C", "n"],
  ["CCOC(=O)c1sc2nc(OCCN3CCOCC3)cc(C)c2c1N", "n"],
  ["CC1(C)Cc2nc(Cl)c(C#N)cc2CO1", "n"],
  ["Cc1cccc(CN2CCN(c3ncccn3)CC2)c1", "n"],
  ["O=C(Nc1ccc(O)cc1)c1ccc2c(c1)C(=O)N(Cc1ccco1)C2=O", "y"],
  ["O=C(Cc1ccccn1)c1ccncc1", "n"],
  ["Cc1cc(C(=O)Nc2ncc(C)s2)c2ccccc2n1", "n"],
  ["COc1ccc(CNC(=O)C2=CC(c3ccc(OC)cc3)=NS(=O)(=O)N2C)cc1", "n"],
  ["O=C1COc2ccc(C(=O)COC(=O)CNS(=O)(=O)c3cccc(F)c3)cc2N1", "n"],
  ["CCc1ccc(NC(=O)c2cc(C)on2)cc1", "n"],
  ["COc1ccc(N2CCN(CCNC(=O)Nc3cc(Cl)ccc3OC)CC2)cc1", "n"],
  ["CCN1CCN(C(=O)C2=CC(c3ccc(OC)cc3)=NS(=O)(=O)N2C)CC1", "n"],
  ["c1ccc2[nH]c(-c3ccc4c(c3)OCO4)nc2c1", "n"],
  ["COc1ccc(Cl)cc1NC(=O)CSc1nnc(-c2ccco2)o1", "n"],
  ["CN1C(=O)c2cc(NC(=O)c3cccc(F)c3)ccc2OC[C@@H]2O[C@@H](CC(=O)NCC3CCCCC3)CC[C@H]21", "n"],
  ["Cc1ccc(S(=O)(=O)Oc2ccccc2/C=C2\\SC(=O)NC2=O)cc1", "n"],
  ["CCCNC(=O)C1(C)CCCN(C(=O)c2ccccc2OC(F)(F)F)C1 (configuration not stated)", "n"],
  ["Cc1ccc(S(=O)(=O)Oc2ccc(/C=N/NC(=O)c3nn(C)cc3[N+](=O)[O-])cc2)cc1", "n"],
  ["COc1ccc(C(=O)OCC(=O)Nc2ccc3[nH]c(=O)[nH]c3c2)c(OC)c1OC", "n"],
  ["CC(Sc1nc2ccccc2n1C)C(=O)Nc1ccc(N2CCOCC2)cc1 (configuration not stated)", "n"],
  ["O=C(O)c1ccccc1NC(=O)N1C[C@H]2C[C@@H](C1)c1cccc(=O)n1C2", "n"],
  ["COc1ccc(/C=C(/C#N)C(=O)Nc2ccc(O)cc2)cc1C(=O)O", "y"],
  ["Cc1ccc(-c2csc(NC(=O)/C=C/c3ccco3)c2C(=O)O)cc1", "n"],
  ["CNC(=O)C[C@H]1CC[C@@H]2[C@@H](COc3ccc(NC(=O)c4cccc(OC)c4)cc3C(=O)N2C)O1", "n"],
  ["CC[C@H](C)[C@@H]1NC(=O)c2cc([N+](=O)[O-])cc(I)c2NCC[C@@H](C(N)=O)NC(=O)[C@H](CCCN=C(N)N)NC1=O", "n"],
  ["Fc1cccc(NC(=S)NNc2c3ccccc3nc3ccccc23)c1", "n"],
  ["O=C(N/N=C/c1cccc([N+](=O)[O-])c1)c1ccc(Br)cc1", "n"],
  ["CCNC(=O)C[C@@H]1CC[C@H]2[C@H](COc3ccc(NC(C)=O)cc3C(=O)N2C)O1", "n"],
  ["COc1cc2nncc(SC)c2cc1OC", "n"],
  ["CN(C)CCNc1ccc(CO)c2sc3ccc(O)cc3c(=O)c12", "y"],
  ["CCN(C(=O)COC(=O)c1cccnc1SC)C1CCCCC1", "n"],
  ["COc1ccccc1C=C1SC(=S)NC1=O", "n"],
  ["CC1=C(C(=O)OCC2CCCO2)C(c2coc3ccccc3c2=O)C2=C(CCCC2=O)N1 (configuration not stated)", "n"],
  ["COc1ccc(/C=C\\c2onc(C)c2S(=O)(=O)N2CCC(C(=O)NCCC(C)C)CC2)cc1", "n"],
  ["Cc1ccc(C(=O)OCC(=O)c2cc(C)n(CC3CCCO3)c2C)cc1 (configuration not stated)", "n"],
  ["COC(=O)c1ccc(C23CC4(C2)[C@H](CN(Cc2ccc(C(F)(F)F)cc2)[C@@H]4c2ccccc2)C3c2ccc(Cl)nc2)cc1 (some centres not stated)", "n"]
]}

Data credit: PubChem BioAssay AID720650
